- System: COLO 205 colon
- experiment.notes: NCI-60 one-dose screen, 48 h (100 = growth as untreated, 0 = no growth, -100 = all killed)
- reported.conditions: 10 µM unless noted
About 83,000 compounds went through this panel and 20% of them were active in at least one assay; those are over-represented in the sample as a whole.
Quick reference: growth of the listed items.
Express it in %; write the number only.

Past entries and their recorded results:
compound=Nc1ccc2c(c1)C(=O)C(=O)c1c-2nc2ccccn12 quantity_name=growth unit_info=% reported_result=-49.2
compound=C#C[C@@]1(O)[C@@H](CO)O[C@@H](n2cc(Cl)c3c(N)ncnc32)[C@@H]1O quantity_name=growth unit_info=% reported_result=-39.4
compound=C=C(C)[C@@H]1CCC=C2CC[C@]3(C)[C@H](CC[C@@H]4[C@@]5(C)CCCNC(C)(C)[C@@H]5CC[C@]43C)[C@H]21 quantity_name=growth unit_info=% reported_result=-43.6
compound=O=C(Nc1cc(=O)[nH]c(=O)[nH]1)C(Cl)Cl quantity_name=growth unit_info=% reported_result=122
compound=Nc1c(C(=O)Nc2ccccc2)sc2nc3c(cc12)CN(C(=O)OCc1ccccc1)CC3 quantity_name=growth unit_info=% reported_result=55.3

So what does the record say about growth for `COc1ccc(NC(=O)c2ccc(Nc3ncnc4[nH]c(C)c(C)c34)cc2)cc1` ?
115

Record: `C#Cc1ccccc1NC(=O)c1sc2nc3c(cc2c1N)CCCCCC3`
47.4
